This section presents compounds with their documented phytotoxicity to the plant, ZEAMX values.
Tested on: Zea mays (ZEAMX)
Test: Herbicidal efficacy, application post-emergence
Type: in vivo
Details: 250 g/ha, evaluated visually after 13 days, scale 0-5
# output: bare number, no unit

Worked cases, answers included:
COMPOUND	TESTED_ON	phytotoxicity to the plant, ZEAMX
CCc1cc(C2CN(C)C(=O)C2C(=O)Nc2ccc(F)nc2F)nn1C(F)F (centres unmarked)	Zea mays (ZEAMX)	4
Cc1c(Br)c(C2CN(C)C(=O)C2C(=O)Nc2ccc(F)cc2F)nn1C(F)F (centres unmarked)	Zea mays (ZEAMX)	3
Cc1cc(C2CN(C)C(=S)C2C(=O)Nc2ccc(F)cc2F)nn1C(F)F (centres unmarked)	Zea mays (ZEAMX)	2
Cc1cc(C2CN(C)C(=S)C2C(=O)Nc2ccc(F)nc2F)nn1C(F)F (centres unmarked)	Zea mays (ZEAMX)	1

Query :: Name the recorded phytotoxicity to the plant, ZEAMX for Cc1cc(C2CN(C)C(=O)C2C(=O)Nc2ccc(F)nc2F)nn1C(F)F (centres unmarked) .
Result :: 4
